Protocol: MM1S myeloma cell viability, profiling panel, resazurin fluorescence, basal, 24 h, PK04 Diversity Set (AID 1174);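 also: MM1S multiple myeloma cell line; test concentration not given here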
Condition Info: higher = more signal, called active from +8 up or from −8 down

Compound	z-score
COc1ccc([C@H]2C[C@H]3C(Br)=C[C@]2(OC)C(=O)[C@]32CO2)cc1	-0.677
C=CCNC(=O)[C@H]1[C@@H]2C(=O)O[C@@H](c3ccccc3)[C@@H](c3ccccc3)N2[C@@H](c2ccccc2OCCO)[C@]12C(=O)N(C(=O)OCCOC)c1ccc(C#CCC(C(=O)OC)C(=O)OC)cc12	1.25
CC(C)CN1C(=O)[C@@]2(Cc3ccccc31)c1ccccc1C(=O)N(C1CCCCC1)[C@H]2c1ccc(CO)cc1	1.05
CN1C(=O)C2C=CC(C(O)c3ccc(N(C)C)cc3)N(Nc3ccc([N+](=O)[O-])cc3[N+](=O)[O-])C2C1=O (configuration not stated)	-0.355
CC(=O)NCCCC[C@@H]1NC(=O)[C@@H]2C[C@H](C(=O)NCc3ccc(F)cc3)[C@H](c3cccc(OCCO)c3)N2C1=O	0.0366
[N-]=[N+]=NCc1ccccc1C[C@]1(C(=O)N2CCCCC2)N=C(c2ccc(OCCCO)cc2)O[C@H]1c1ccccc1CN=[N+]=[N-]	-1.32
O=C(O)[C@@H]1Cc2c([nH]c3ccccc23)[C@@H](c2ccccc2)N1	1.14
